target_under_test: Potassium voltage-gated channel subfamily KQT member 1 (Homo sapiens)
assay_remarks: KCNQ1 potassium channel potentiators, confirmation, FluxOR thallium flux, CHO cells, duplicates (AID 493007);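 for potentiation: 0% = buffer-only wells and 100% = R-L3 activator control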
test_conditions: KCNQ1 cell line, FluxOR thallium flux fluorescence, at 10 µM; stronger effect = higher value, % of reference activator effect, buffer zero
Calls of active or inactive are those of the source.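 Rule for the calls: active = potentiation averaged over duplicate wells exceeding buffer-only control mean by more than 3 SD; inactive = the rest.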
value_type: potentiation

Guide cases for potentiation, answers given:
# compound, value_type, recorded_measurement
records = [
    ("C/C(=N\\NC(=O)c1cccc(Br)c1)c1ccccn1", "potentiation", "inactive"),
    ("Cc1cccc(-c2n[nH]c(=S)n2/N=C/c2cccs2)c1", "potentiation", "22.5% (active)"),
    ("CCOc1ccc2[nH]c(=O)c(CN(Cc3ccc(C)cc3)C(=O)N3CCCC3)cc2c1", "potentiation", "inactive"),
    ("O=c1cc(-c2ccccc2)nc2c(-c3ccccc3)c(C(F)(F)F)[nH]n12", "potentiation", "282% (active)"),
]

List potentiation for every entry below, keeping the order given.
1. OC1(c2ccc(Br)cc2)CCNCC1
2. CC1CN(C(=S)NC(=O)c2ccc(Cl)cc2)CC(C)O1 (stereo unspecified)
3. CC1(C)Cc2c(sc(/N=C/N3CCCCCC3)c2C#N)C(C)(C)N1
4. CCOC(=O)CNC(=O)N1CCc2ccc(NC(=O)c3ccccc3Cl)cc2C1

## Result
1: inactive; 2: 24% (active); 3: inactive; 4: inactive

* * *

target_under_test: Potassium voltage-gated channel subfamily KQT member 1 (Homo sapiens) (UniProt P51787)
Sequence (P51787 whole entry, looked up): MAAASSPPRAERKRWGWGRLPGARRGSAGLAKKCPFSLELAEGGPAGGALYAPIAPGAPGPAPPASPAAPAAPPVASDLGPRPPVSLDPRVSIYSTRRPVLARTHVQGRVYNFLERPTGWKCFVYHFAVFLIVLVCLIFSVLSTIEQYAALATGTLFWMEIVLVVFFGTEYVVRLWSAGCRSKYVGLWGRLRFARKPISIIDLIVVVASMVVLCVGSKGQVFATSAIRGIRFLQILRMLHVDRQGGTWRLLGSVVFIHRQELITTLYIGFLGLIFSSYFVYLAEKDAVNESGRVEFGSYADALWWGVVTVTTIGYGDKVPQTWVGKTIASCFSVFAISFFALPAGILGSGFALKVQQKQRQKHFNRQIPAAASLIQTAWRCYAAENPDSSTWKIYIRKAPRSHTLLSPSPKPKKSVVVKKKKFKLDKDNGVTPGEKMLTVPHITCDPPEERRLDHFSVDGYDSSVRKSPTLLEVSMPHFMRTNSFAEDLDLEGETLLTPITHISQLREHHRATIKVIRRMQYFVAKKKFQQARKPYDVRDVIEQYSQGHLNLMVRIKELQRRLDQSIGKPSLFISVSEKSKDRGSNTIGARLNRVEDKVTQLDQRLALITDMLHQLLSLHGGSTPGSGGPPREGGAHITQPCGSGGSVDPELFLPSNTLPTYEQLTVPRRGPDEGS
assay_remarks: KCNQ1 potassium channel potentiators, confirmation, FluxOR thallium flux, CHO cells, duplicates (AID 493007);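 for potentiation: 0% = buffer-only wells and 100% = R-L3 activator control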
test_conditions: KCNQ1 cell line, FluxOR thallium flux fluorescence, at 10 µM; stronger effect = higher value, % of reference activator effect, buffer zero
Active and inactive are the calls of the source.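 The calls were made as follows: active = potentiation averaged over duplicate wells exceeding buffer-only control mean by more than 3 SD; inactive = the rest.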
value_type: potentiation

Guide cases for potentiation, answers given:
# molecule, potentiation
measured = [
    ("c1ccc2[nH]c(-c3ccc4c(c3)OCO4)nc2c1", "inactive"),
    ("O=C(COC(=O)C1CCC(=O)N1)Nc1ccc(Oc2ccccc2)cc1 (stereo not drawn)", "inactive"),
    ("COc1ccc(Cn2c(=O)c3[nH]cnc3n(-c3ccccc3C)c2=O)cc1", "inactive"),
    ("COc1ccc(C(=O)NNC(=O)C(=O)Nc2ccc(C)cc2)cc1", "123% (active)"),
    ("COc1ccc(OC)c(S(=O)(=O)Nc2ccc3c(c2)N(C(C)=O)CCC3)c1", "inactive"),
]

List potentiation for every entry below, keeping the order given.
1. CCOC(=O)c1cc2c(=O)n3ccccc3nc2n(CCCOC)c1=NC(=O)c1ccncc1
2. NC(=O)COC(=O)c1ccccc1Nc1ccc(SC(F)F)cc1
3. C=CCn1c(=S)[nH]c2scc(-c3cccs3)c2c1=O
4. CCc1ccc(/C=N/NC(=O)Cc2cccn2C)cc1
5. C/C(N)=C(/C#N)C(=O)CSc1nc2ccccc2c(=O)n1Cc1ccc(F)cc1
6. CN(C)/C=N/S(=O)(=O)c1cccn1-c1ncc(C(F)(F)F)cc1Cl
7. O=C(N/N=C/c1ccc(Sc2ccccn2)o1)c1cc2ccccc2cc1O

## Result
1. inactive
2. 26% (active)
3. 274% (active)
4. inactive
5. 48.5% (active)
6. inactive
7. 70% (active)

List potentiation for every entry below, keeping the order given.
1. CC1=CC(=O)C=C(C)C1=NOS(=O)(=O)c1ccccc1
2. COc1ccc(N=Nc2ccc(O)c3ncccc23)cc1
3. Cc1ccc(OCCCC(=O)NCc2ccco2)c(C)c1
4. O=C1CCC(c2ccc(-n3ccnc3)cc2)=NN1

## Result
["inactive", "90% (active)", "inactive", "inactive"]

List potentiation for every entry below, keeping the order given.
1. Cc1ccc(N(C(=O)c2ccco2)C(C(=O)NC2CCCC2)c2cccnc2)cc1C (stereo not drawn)
2. C=CCN1C(=O)C(CC(=O)NCC)SC1=Nc1ccc(S(N)(=O)=O)cc1 (stereo not drawn)
3. CC(C)n1cc(NC(=O)c2cc(-c3ccccc3)on2)cn1
4. O=C(NC1CCCC1)C(c1cccnc1)N(C(=O)c1csnn1)c1ccccc1 (stereo not drawn)

## Result
inactive
inactive
35.5% (active)
27% (active)

List potentiation for every entry below, keeping the order given.
1. Cc1ccc2nc(C3CCN(S(=O)(=O)c4ccc5ccccc5c4)CC3)[nH]c2c1
2. O=C(NC(=S)NCCC1=CCCCC1)c1ccc(Br)o1
3. CCOc1ccc2[nH]c(=O)c(CN(CCN3CCCC3)C(=S)Nc3ccccc3OCC)cc2c1

## Result
1. inactive
2. 304% (active)
3. inactive

* * *

target_under_test: Potassium voltage-gated channel subfamily KQT member 2 (Rattus norvegicus)
assay_remarks: rat KCNQ2 channel potentiation, selectivity assay for KCNQ1 potentiator project, KCNQ2-CHO-K1 cells (AID 493009);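 note: assay conditions were tuned for KCNQ1 rather than KCNQ2 modulators; signal is max minus min fluorescence divided by baseline after thallium stimulus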
test_conditions: FluxOR thallium flux fluorescence, at 10 µM, scaled: buffer 0, activator control 100
Active and inactive are the calls of the source.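 How the source made its calls: active means mean duplicate potentiation above the buffer control mean plus 5 SD of buffer wells; inactive means the rest.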
Your answer must be one of the following: class 1 (active), class 0 (inactive)

## Task In this assay, the call recorded for Cc1[nH]n(-c2ccc(Cl)cc2)c(=O)c1/C=N/c1nnc(-c2ccccc2)s1 was what?
## Result class 1

* * *

assay_remarks: calcium flux inhibitors in TRPC4/5HT1a cells, confirmation, counter-screen for TRPC4 inhibitor project, cell-based, second counter screen, HEK293 TRPC4/5HT1a, Fluo-4 (AID 434978);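 note: serotonin given first at submaximal then at maximal dose after compound preincubation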
test_conditions: Fluo-4 calcium flux, at 10 µM, serotonin added to trigger calcium flux
The source made the active and inactive calls.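 The calls were made as follows: active = primary screen active whose calcium signal fell more than 3 SD beyond the full-serotonin control mean in both duplicate plates; inactive = the rest.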
Your answer must be one of the following: active, inactive

Please review the entries below; each comes with its answer.
# compound, label_value
rows = [
    ("CCCN(CCC)CCCNc1ccc2nnc(-c3ccc(F)cc3)n2n1", "inactive"),
    ("CCN(CC)CCSc1nc2ccc(OC)cc2[nH]1", "inactive"),
    ("CCc1nc(NCCc2ccccn2)c2nnn(Cc3ccccc3F)c2n1", "inactive"),
    ("CCOc1ccccc1OCC(=O)Nc1cc(S(=O)(=O)N2CCCCC2)ccc1N1CCN(CC)CC1", "inactive"),
    ("OCC1(CC2CCCCO2)CCN(Cc2nc3ccccc3[nH]2)CC1 (centres undefined)", "inactive"),
    ("Clc1ccc(COn2c(-c3ccc(Cl)cc3Cl)nc3ncccc32)cc1", "inactive"),
]

## Task In this assay, the call recorded for Cc1ccc(C(=O)NNC(=S)NC(=O)c2ccc(Cl)cc2)cc1 was what?
## Result inactive

## Task In this assay, the call recorded for Cc1ccc2c(C)c(C(=O)N(Cc3cccs3)C3CCS(=O)(=O)C3)oc2c1 (centres undefined) was what?
## Result inactive

## Task In this assay, the call recorded for Cc1ccc(S(=O)(=O)Nc2cccc(C(=O)NCC(c3ccco3)N3CCCC3)c2)cc1F (centres undefined) was what?
## Result inactive

## Task In this assay, the call recorded for CC1(C)CC(=O)c2cc(C(=O)NCc3ccco3)c(=O)n(-c3ccc(Cl)cc3)c2C1 was what?
## Result inactive

## Task In this assay, the call recorded for Cc1sc2nc(CSc3ccccc3)nc(NCCN(C)C)c2c1C was what?
## Result inactive

## Task In this assay, the call recorded for CCCOc1ccc(C(=O)NNC(=S)NC(=O)c2cccs2)cc1 was what?
## Result inactive

## Task In this assay, the call recorded for Cc1cc(C)n(-c2nc(SCCN(C)C)c3c4c(sc3n2)CCCC4)n1 was what?
## Result inactive

## Task In this assay, the call recorded for COc1ccc(C(=O)NC(=S)NNC(=O)c2c(-c3ccccc3)noc2C)cc1OC was what?
## Result inactive

## Task In this assay, the call recorded for CCn1c(N2CCN(Cc3ccc([N+](=O)[O-])cc3)CC2)nc2ccccc21 was what?
## Result inactive

## Task In this assay, the call recorded for CCOC(=O)C1(CCOc2ccccc2)CCN(Cc2ccc3c(c2)OCCO3)CC1 was what?
## Result inactive

## Task In this assay, the call recorded for CCCC(=O)NC(C)C(c1cccs1)N1CCN(c2ccccc2)CC1 (centres undefined) was what?
## Result inactive

## Task In this assay, the call recorded for CN(C)CCCN(C(=O)c1ccc(S(=O)(=O)N2CCOCC2)cc1)c1nc2ccc(F)cc2s1 was what?
## Result inactive

## Task In this assay, the call recorded for CCN1CCN(c2ccc(S(=O)(=O)N3CCCCC3)cc2NC(=O)c2cccc(C)c2[N+](=O)[O-])CC1 was what?
## Result inactive

## Task In this assay, the call recorded for CC(=O)N1CCc2cc(Br)cc(S(=O)(=O)NCCCN(C)Cc3ccccc3)c21 was what?
## Result inactive

## Task In this assay, the call recorded for CN(C)C(CNC(=S)Nc1cccc(Cl)c1)c1ccccc1 (centres undefined) was what?
## Result inactive

## Task In this assay, the call recorded for CCCCC(=O)NNC(=S)NC(=O)c1ccc(C)cc1 was what?
## Result inactive

## Task In this assay, the call recorded for CCNC(=S)N1CCC(C(O)(c2ccccc2)c2ccccc2)CC1 was what?
## Result inactive

## Task In this assay, the call recorded for COc1cc(OC)cc(C(=O)NC(=S)NNC(=O)[C@H]2C[C@@H]2c2ccccc2)c1 was what?
## Result inactive

Origin of the recorded values: PubChem BioAssay
